system: HL-60; test: Growth inhibition of human HL60 cells after 72 hrs by trypan blue assay; assay type: functional; details: HL-60, 72 h
measured.metric: GI50 (µM)
Response body: numeric value in µM, unit text excluded.

mol: CN(C)CCN1CCN(C(=O)c2cnc3c(ccc4cc5c(cc43)OCCO5)c2)CC1
result.unit: µM
GI50: 33.8

Reported GI50 of CN(C)CCNC(=O)c1cnc2c(ccc3cc4c(cc32)OCCO4)c1 : 30

# GI50 of O=C(NCCN1CCOCC1)c1cnc2c(ccc3cc4c(cc32)OCCO4)c1 = 32.5

Memo: CN(C)CCNC(=O)c1cnc2c(ccc3ccccc32)c1 , reported GI50: 29.8

The measured GI50 associated with CN(C)CCNC(=O)c1cnc2ccc3ccccc3c2c1 reads 24.1
